Test system: Plasmodium falciparum Sir2 (PF13_0152, Sir2A)
measurement.description: pfSir2 binders on small-molecule microarrays, primary screen, biochemical, small-molecule microarray, 635 nm fluorescence (AID 1098);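 note: score merges spot fluorescence intensity with its signal-to-noise ratio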
details: small-molecule microarray binding, fluorescence 635 nm; higher = more signal
Criterion: composite z-score meeting or surpassing 0.5. Met: Criterion met. Not met: Criterion not met.

• C[N+](C)(C)CCCC[C@@H]1NC(=O)[C@H]2C[C@@H](C(=O)NCCCCCNC(=O)CS)[C@@H](c3ccc(O)cc3)N2C1=O = Criterion met

Challenge: Textbook exercise: given the entry CN(C)CCCC[C@@H]1NC(=O)[C@H]2C[C@@H](C(=O)O)[C@@H](c3cccc(OCCO)c3)N2C1=O , state whether its composite z-score is greater than or equal to 0.5.
Response given: Criterion met

Challenge: Hello, I need to know if CCCCC(O)C1C=CC2C(=O)N(C)C(=O)C2N1Nc1ccccc1 (stereo not given) has measured composite z-score not below 0.5. Thanks!
Response given: Criterion not met

Challenge: Reported composite z-score reaches at least 0.5 for COc1ccc([Si](C)(C)[C@H]2[C@H](CCn3cc([C@H](O)c4ccccc4)nn3)O[C@@]3(C(=O)N(c4ccccc4)c4ccccc43)[C@@H]2C)cc1 ?
Response given: Criterion not met

Challenge: API: above_or_equal(metric=composite z-score, cutoff=0.5) for item CN(C)CCCC[C@@H]1NC(=O)[C@H]2C[C@@H](C(=O)NCc3ccc(F)cc3)[C@@H](c3ccc(O)cc3)N2C1=O
Response given: Criterion not met

Challenge: Please check the record O=C1OCCC=C[C@H]2OC34C=CCN(c5ccc(Cl)cc5)C(=O)[C@H]3N(CCO)C(=O)[C@@H]4C12 (stereo not given in full) and state if its composite z-score is at or above 0.5.
Response given: Criterion not met

Challenge: # bool: composite z-score of COCCOC(=O)N1C(=O)[C@@]2(c3cc(C#CC4=CCCCC4)ccc31)[C@H](c1ccccc1OCCO)N1[C@H](c3ccccc3)[C@H](c3ccccc3)OC(=O)[C@H]1[C@@H]2C(N)=O >= 0.5
Response given: Criterion met

Challenge: For this compound, is measured composite z-score 0.5 or higher? CC(C)CNC(=O)[C@@H]1c2ccccc2C(=O)N(Cc2ccccc2)[C@H]1c1ccc(CO)cc1
Response given: Criterion not met
